- Assay Text: in vivo
- Condition Notes: male, NODSCID 1L2RγKO, mouse, iv, total radioactivity, Lungs uptake
Measured Parameter: tissue uptake at 1 h (%ID/g)
Give bare numbers, in %ID/g.

{"Compound": "O=C(O)CCC[C@H](NC(=O)N[C@@H](CCCCNC(=O)[C@H](Cc1c2ccccc2cc2ccccc12)NC(=O)Cc1ccc(CNC(=O)CN2CCN(CC(=O)O)CCN(CC(=O)O)CCN(CC(=O)O)CC2)cc1)C(=O)O)C(=O)O [68Ga-HTK04036, metal not drawn]", "Measured Parameter": "tissue uptake at 1 h", "Endpoint Result": 0.55}
{"Compound": "O=C(O)CC[C@H](NC(=O)N[C@@H](CCCCNC(=O)[C@H](Cc1c2ccccc2cc2ccccc12)NC(=O)[C@H]1CC[C@H](CNC(=O)CN2CCN(CC(=O)O)CCN(CC(=O)O)CCN(CC(=O)O)CC2)CC1)C(=O)O)C(=O)O [68Ga-HTK03041, metal not drawn]", "Measured Parameter": "tissue uptake at 1 h", "Endpoint Result": 4.32}
{"Compound": "O=C(O)CCC[C@H](NC(=O)N[C@@H](CCCCNC(=O)[C@H](Cc1cccc(I)c1)NC(=O)[C@H]1CC[C@H](CNC(=O)CN2CCN(CC(=O)O)CCN(CC(=O)O)CCN(CC(=O)O)CC2)CC1)C(=O)O)C(=O)O [68Ga-HTK04053, metal not drawn]", "Measured Parameter": "tissue uptake at 1 h", "Endpoint Result": 0.28}

Now, please, on to the next compound.
Tell me the measured tissue uptake at 1 h of O=C(O)CCC[C@H](NC(=O)N[C@@H](CCCCNC(=O)[C@H](Cc1c2ccccc2cc2ccccc12)NC(=O)c1ccc(NC(=O)CN2CCN(CC(=O)O)CCN(CC(=O)O)CCN(CC(=O)O)CC2)cc1)C(=O)O)C(=O)O [68Ga-HTK04041, metal not drawn] , please.
0.82

###

- Assay Text: in vivo
- Parameters: species or system mice
- Condition Notes: male, NODSCID 1L2RγKO, mouse, iv, total radioactivity, Stomach uptake
Measured Parameter: tissue uptake at 120 h (%ID/g)
Answers are plain numbers, in %ID/g.

{"Molecule": "COc1ccc(CCCC(=O)NCC(=O)N[C@@H](CCCCNC(=O)CN2CCN(CC(=O)O)CCN(CC(=O)O)CCN(CC(=O)O)CC2)C(=O)NC[C@H]2CC[C@H](C(=O)N[C@@H](Cc3c4ccccc4cc4ccccc34)C(=O)NCCCC[C@H](NC(=O)N[C@@H](COCC(=O)O)C(=O)O)C(=O)O)CC2)cc1 [177Lu-HTK04028, metal not drawn]", "Unit Descriptor": "%ID/g", "Endpoint Result": 0.1}
{"Molecule": "O=C(O)CCC[C@H](NC(=O)N[C@@H](CCCCNC(=O)[C@H](Cc1c2ccccc2cc2ccccc12)NC(=O)[C@H]1CC[C@H](CNC(=O)CN2CCN(CC(=O)O)CCN(CC(=O)O)CCN(CC(=O)O)CC2)CC1)C(=O)O)C(=O)O [177Lu-HTK03149, metal not drawn]", "Unit Descriptor": "%ID/g", "Endpoint Result": 0.24}

Tell me the measured tissue uptake at 120 h of O=C(O)CCC[C@H](NC(=O)N[C@@H](CCCCNC(=O)[C@H](Cc1c2ccccc2cc2ccccc12)NC(=O)[C@H]1CC[C@H](CNC(=O)[C@H](CCCCNC(=O)CN2CCN(CC(=O)O)CCN(CC(=O)O)CCN(CC(=O)O)CC2)NC(=O)CNC(=O)CCCc2ccc(Cl)cc2)CC1)C(=O)O)C(=O)O [177Lu-HTK03153, metal not drawn] , please.
0.15
